Values from patent US11713338B2

- Experimental System: integrin α4β7 (RPMI8866 human cells adhering to MAdCAM-1) (Homo sapiens, UniProt P13612+P26010)
- Construct: RMP18866 cells, which express integrin α4β7; host or cells: RPMI8866
- Sequence (P13612 34-1032): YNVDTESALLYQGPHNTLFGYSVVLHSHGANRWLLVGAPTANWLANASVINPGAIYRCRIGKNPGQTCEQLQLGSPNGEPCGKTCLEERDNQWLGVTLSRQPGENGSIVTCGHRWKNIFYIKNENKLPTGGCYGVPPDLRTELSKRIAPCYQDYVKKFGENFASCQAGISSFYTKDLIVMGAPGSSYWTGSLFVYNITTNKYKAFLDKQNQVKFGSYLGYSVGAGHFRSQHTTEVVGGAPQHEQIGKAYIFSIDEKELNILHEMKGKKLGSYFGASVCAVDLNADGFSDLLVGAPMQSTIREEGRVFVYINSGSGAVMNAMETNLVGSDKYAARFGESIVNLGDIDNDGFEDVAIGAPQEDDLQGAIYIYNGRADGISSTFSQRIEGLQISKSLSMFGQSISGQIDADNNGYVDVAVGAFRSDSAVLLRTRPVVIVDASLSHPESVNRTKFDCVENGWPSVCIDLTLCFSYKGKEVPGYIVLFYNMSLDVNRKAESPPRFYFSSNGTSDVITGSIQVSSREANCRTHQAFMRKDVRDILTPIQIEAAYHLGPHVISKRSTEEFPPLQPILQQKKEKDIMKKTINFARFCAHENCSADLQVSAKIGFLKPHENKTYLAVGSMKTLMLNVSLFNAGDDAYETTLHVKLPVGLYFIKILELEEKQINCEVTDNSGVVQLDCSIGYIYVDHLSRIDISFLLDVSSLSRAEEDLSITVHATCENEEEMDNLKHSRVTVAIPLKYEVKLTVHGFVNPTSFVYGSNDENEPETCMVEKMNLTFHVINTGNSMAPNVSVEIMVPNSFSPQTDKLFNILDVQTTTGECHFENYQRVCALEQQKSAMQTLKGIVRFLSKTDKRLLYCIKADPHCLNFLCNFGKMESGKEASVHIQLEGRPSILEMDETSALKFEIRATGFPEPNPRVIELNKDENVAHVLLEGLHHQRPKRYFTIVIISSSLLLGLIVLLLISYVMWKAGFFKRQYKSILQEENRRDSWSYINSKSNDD
- Sequence (P26010 20-798): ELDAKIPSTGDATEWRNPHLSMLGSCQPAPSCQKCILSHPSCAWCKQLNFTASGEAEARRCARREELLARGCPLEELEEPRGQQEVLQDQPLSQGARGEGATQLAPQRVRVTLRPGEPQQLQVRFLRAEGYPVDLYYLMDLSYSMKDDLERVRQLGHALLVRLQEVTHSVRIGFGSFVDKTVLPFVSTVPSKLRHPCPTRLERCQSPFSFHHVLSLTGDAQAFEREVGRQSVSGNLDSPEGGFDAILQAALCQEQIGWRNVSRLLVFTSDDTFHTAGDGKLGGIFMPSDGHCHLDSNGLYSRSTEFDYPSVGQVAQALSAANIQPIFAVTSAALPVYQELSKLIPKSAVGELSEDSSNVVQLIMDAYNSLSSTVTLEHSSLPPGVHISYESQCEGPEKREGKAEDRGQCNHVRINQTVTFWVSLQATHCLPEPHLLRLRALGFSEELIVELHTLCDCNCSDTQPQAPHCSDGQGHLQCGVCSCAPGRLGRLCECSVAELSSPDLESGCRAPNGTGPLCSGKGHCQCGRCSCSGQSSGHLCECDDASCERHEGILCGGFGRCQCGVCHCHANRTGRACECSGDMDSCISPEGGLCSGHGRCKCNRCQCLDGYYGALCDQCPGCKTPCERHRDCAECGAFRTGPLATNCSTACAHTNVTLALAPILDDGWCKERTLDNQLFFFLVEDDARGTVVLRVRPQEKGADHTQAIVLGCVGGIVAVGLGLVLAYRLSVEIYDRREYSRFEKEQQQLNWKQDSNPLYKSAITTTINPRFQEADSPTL
- Protocol Text: Integrin α4β7-MAdCAM cell adhesion assay (RPMI8866 cells)
- Format: cell-based
- Setup Conditions: RPMI8866 cells adhering to MAdCAM; read-out: RPMI8866 Adhesion α4β7/MAdCAM IC50
Observable: pIC50
pIC50 is a log-scale quantity: -log10 of the concentration expressed in molar.

Item: `CC(C)C[C@@H]1NC(=O)C[C@H](CCCCN)N(C)C(=O)[C@H](CCCCNC(=O)c2ccccc2-c2ccccc2C(=O)NCCCC[C@@H]2NC(=O)[C@@H]3CCCN3[C@H](C(=O)NC(C)(C)C)[C@H](C)NC(=O)[C@H]([C@@H](C)O)NC(=O)[C@H](CC(=O)O)NC(=O)[C@H](CC(C)C)NC(=O)C[C@H](CCCCN)N(C)C2=O)NC(=O)[C@@H]2CCCN2[C@H](C(=O)NC(C)(C)C)[C@H](C)NC(=O)[C@H]([C@@H](C)O)NC(=O)[C@H](CC(=O)O)NC1=O` | pIC50: 7.82
